# Test system: NCI-H460
# measurementNotes: NCI tumour cell line growth inhibition, 48 h
Active and inactive are the calls of the source. No stated cut-off is given here; in the data, active = GI50 up to about 1.1 µM and inactive = higher.
Form entry, call: pick from active, inactive

Solved entries:
COP(=O)(C(/C=C/c1ccccc1)OC(C)=O)[C@@H]1CCCC[C@H]1N(CC(C)(C)C)C(C)=O (some centres not stated) ... inactive
C=COCCCOc1ccccc1 ... inactive
COc1ccc(-n2cnc3c2=NC(C)(C)NC=3C(N)=O)c(OC)c1 ... inactive

Input: Could you please tell me the result logged for CC(C)(O)C1CC[C@]2(C)[C@H]3CC[C@@H]4[C@@]5(C)CCCC(C)(C)[C@@H]5CC[C@@]4(C)[C@]3(C)CC[C@@H]12 (some centres not stated) in this assay?
Output: inactive

Input: Now consider Cc1ccc(C)c2c1CC(Cc1ccccc1C(=O)O)C2=O (configuration not stated) .
Output: inactive

Input: Now consider COc1ccc(CC2C3=C(CCN2C(=O)C2CCC2)CC2(CC3)OCCO2)cc1O (configuration not stated) .
Output: inactive

Input: Now consider "C=C1C(=O)O[C@@H]2[C@H]3O[C@]3(C)CCC=C(C)CC[C@@H]12" .
Output: inactive
